meta.source: patent US20240190855A1

# system: CDK2/Cyclin E complex (Homo sapiens)
# measurementNotes: CDK2/Cyclin E fluorescence-based microfluidic mobility shift assay (CDK2 Biochemical Caliper Assay)
# testParameters: read-out: Biochemical CDK2/CyclinE Caliper IC50
testReadout: IC50

| molecule | IC50 |
| --- | --- |
| Cc1cc(CC(=O)Nc2cc([C@H]3CCC[C@H](OC(=O)NC4(C)CC4)CC3)[nH]n2)on1 (single isomer, unassigned) [Example 26] | 1 to 100 µM |
| CC(C)NC(=O)N[C@H]1CC[C@@H](c2cc(Nc3ncccn3)n[nH]2)C1 (single isomer, unassigned) [Example 124] | 1 to 100 µM |
| Cc1cc(CC(=O)Nc2cc(N3CC[C@@H](COC(=O)NC4(C)CC4)C3)[nH]n2)on1 (racemic) [Example 53] | 1 to 100 µM |
| COCc1nc2ccnc(Nc3cc([C@@H]4CC[C@H](Oc5nnccc5C(C)C)C4)[nH]n3)c2s1 (single isomer, unassigned) [Example 445] | ≤ 0.1 µM |
| COCc1cc2c(Nc3cc([C@H]4C[C@@H](OC(=O)N[C@@H]5C[C@@H]5C)CO4)[nH]n3)nccn2n1 [Example 759] | ≤ 0.1 µM |

As a next step, examine the molecule that follows.
Can you share its IC50? I mean this molecule: Cn1nc(COC(F)(F)F)cc1C(=O)Nc1cc([C@H]2C[C@@H](OC(=O)NC3(C)CC3)CO2)[nH]n1 [Example 704]
≤ 0.1 µM

----------
Consider the following molecules and their measured IC50 readings.
# system: CDK2/Cyclin E complex (Homo sapiens, UniProt P24941)
# measurementNotes: CDK2/Cyclin E fluorescence-based microfluidic mobility shift assay (CDK2 Biochemical Caliper Assay)
# testParameters: read-out: Biochemical CDK2/CyclinE Caliper IC50

Please review the following examples before continuing.
| molecule | IC50 |
| --- | --- |
| Cc1cc(CC(=O)Nc2cc([C@@H]3CC[C@H](Oc4cccnc4C)C3)[nH]n2)on1 (single isomer, unassigned) | 0.25 to 1 µM |
| Cc1cc(CC(=O)Nc2cc([C@@H]3CC[C@H](Cc4cn[nH]c4C(C)C)C3)[nH]n2)on1 (single isomer, unassigned) | 0.25 to 1 µM |

Item CC(C)NC(=O)O[C@@H]1CO[C@H](c2cc(Nc3nccc4nccn34)n[nH]2)C1 with CDK2/Cyclin E complex (Homo sapiens, UniProt P24941) - IC50?
≤ 0.1 µM

Request body: readout IC50, system CDK2/Cyclin E complex (Homo sapiens, UniProt P24941), query COCc1cc(C(=O)Nc2cc([C@H]3C[C@H](COc4nnccc4C(C)C)C3)[nH]n2)n(C)n1 . Return the value.
1 to 100 µM

Fill in the recorded IC50 for this molecule, with CDK2/Cyclin E complex (Homo sapiens, UniProt P24941) as test system: Cn1nc(CO)cc1C(=O)Nc1cc([C@H]2C[C@@H](OC(=O)NC3(C)CC3)CO2)[nH]n1
0.25 to 1 µM

What reported IC50 corresponds to COCc1cc2c(Nc3cc([C@H]4C[C@@H](COc5[nH]ncc5C(C)(C)C)C4)[nH]n3)nccn2n1 on CDK2/Cyclin E complex (Homo sapiens, UniProt P24941)?
≤ 0.1 µM

Form: Entry = CC1(NC(=O)O[C@H]2CO[C@@H](c3cc(Nc4ccn5c(Cl)nnc5n4)n[nH]3)C2)CC1 | System = CDK2/Cyclin E complex (Homo sapiens, UniProt P24941) | IC50 = ____
0.25 to 1 µM

----------
# system: CDK2/Cyclin E complex (Homo sapiens, UniProt P24941)
# measurementNotes: CDK2/Cyclin E fluorescence-based microfluidic mobility shift assay (CDK2 Biochemical Caliper Assay)
# testParameters: read-out: Biochemical CDK2/CyclinE Caliper IC50
# Experimental: Compounds of the present disclosure were tested in a CDK2/Cyclin E fluorescence-based microfluidic mobility shift assay (PerkinElmer). The active wild type CDK2/Cyclin E complex was purchased from Eurofins (14-475). Compound stocks were prepared in DMSO and were serially diluted into 11 concentrations by 3-fold dilution. […] The final reaction components were 0.1 nM CDK2/Cyclin E, 2000 uM ATP and 1.5 uM FL Peptide 18 and 1% DMSO. […] Samples were analyzed using a LabChip EZ reader (PerkinElmer).
pIC50: −log10 of the molar value.
testReadout: pIC50

// solved cases for pIC50 follow
| molecule | system | measuredResult |
| --- | --- | --- |
| CC(C)NC(=O)O[C@H]1CO[C@@H](c2cc(Nc3nccn4nc(CN5CCC5)cc34)n[nH]2)C1 | CDK2/Cyclin E complex (Homo sapiens, UniProt P24941) | ≥ 7.00 |
| Cc1cc(CC(=O)Nc2cc([C@H]3CC[C@@H](Oc4cnccc4C4CC4)C3)[nH]n2)on1 (single isomer, unassigned) | CDK2/Cyclin E complex (Homo sapiens, UniProt P24941) | ≥ 7.00 |
| COCc1cc(C(=O)Nc2cc([C@H]3C[C@@H](COc4[nH]ncc4C(C)C)C3)[nH]n2)n(C)n1 | CDK2/Cyclin E complex (Homo sapiens, UniProt P24941) | ≥ 7.00 |
| Cc1cc(CC(=O)Nc2cc([C@@H]3C[C@H](OC(=O)NC4(C)CC4)CO3)[nH]n2)on1 (single isomer, unassigned) | CDK2/Cyclin E complex (Homo sapiens, UniProt P24941) | ≥ 7.00 |
| Cc1ncccc1O[C@H]1CC[C@@H](c2cc(Nc3ccc4c(c3)C(C)(C)NC4=O)n[nH]2)C1 (single isomer, unassigned) | CDK2/Cyclin E complex (Homo sapiens, UniProt P24941) | ≥ 7.00 |
| Cc1cc(CC(=O)Nc2cc([C@H]3CC[C@H](CC(=O)O)C3)[nH]n2)on1 (single isomer, unassigned) | CDK2/Cyclin E complex (Homo sapiens, UniProt P24941) | 4.00 to 6.00 |
| Cc1cc(CC(=O)Nc2cc([C@H]3C[C@@H](Oc4nnccc4C(C)C)CO3)[nH]n2)on1 | CDK2/Cyclin E complex (Homo sapiens, UniProt P24941) | ≥ 7.00 |
| COCc1cc(C(=O)Nc2cc([C@@H]3C[C@H](OC)[C@@H](OC(=O)NC(C)C)C3)[nH]n2)n(C)n1 (single isomer, unassigned) | CDK2/Cyclin E complex (Homo sapiens, UniProt P24941) | 4.00 to 6.00 |
| COCc1cc2c(Nc3cc([C@H]4C[C@@H](OC(=O)NC5(C(F)F)CC5)CO4)[nH]n3)nccn2n1 | CDK2/Cyclin E complex (Homo sapiens, UniProt P24941) | ≥ 7.00 |
| CC1(NC(=O)O[C@H]2CO[C@@H](c3cc(Nc4ccc5nccnc5n4)n[nH]3)C2)CC1 | CDK2/Cyclin E complex (Homo sapiens, UniProt P24941) | 6.60 to 7.00 |

May I ask what pIC50 has been recorded for COCc1cc2c(Nc3cc([C@H]4C[C@@H](OC(=O)NC(C)(C)C(F)(F)F)CO4)[nH]n3)nccn2n1 ?
≥ 7.00

Record request: pIC50 value, item COCc1cc(C(=O)Nc2cc([C@H]3C[C@@H](OC)[C@H](OC(=O)NC(C)C)C3)[nH]n2)n(C)n1 (single isomer, unassigned)
4.00 to 6.00

I would be grateful if you could share the reported pIC50 for C[C@H](NC(=O)O[C@H]1CO[C@@H](c2cc(NC(=O)c3cc(COC(F)(F)F)nn3C)n[nH]2)C1)C1CC1 .
≥ 7.00

----------
# system: CDK2/Cyclin E complex (Homo sapiens, UniProt P24941)
# measurementNotes: CDK2/Cyclin E fluorescence-based microfluidic mobility shift assay (CDK2 Biochemical Caliper Assay)
# testParameters: read-out: Biochemical CDK2/CyclinE Caliper IC50
testReadout: IC50

Examples from the recorded data:
| compound | system | IC50 |
| --- | --- | --- |
| COCc1cc(C(=O)Nc2cc([C@@H]3CC[C@H](Oc4nccnc4C)C3)[nH]n2)n(C)n1 (single isomer, unassigned) | CDK2/Cyclin E complex (Homo sapiens, UniProt P24941) | 250 to 1000 nM |
| CC(C)c1[nH]ncc1OC[C@H]1C[C@@H](c2cc(Nc3nccn4nccc34)n[nH]2)C1 | CDK2/Cyclin E complex (Homo sapiens, UniProt P24941) | ≤ 100 nM |
| CCc1ccnnc1O[C@@H]1CC[C@H](c2cc(NC(=O)c3cc(COC)nn3C)n[nH]2)C1 (single isomer, unassigned) | CDK2/Cyclin E complex (Homo sapiens, UniProt P24941) | ≤ 100 nM |
| COCc1cc2c(Nc3cc([C@H]4C[C@@H](OC(=O)N[C@@H](C)C(C)C)CO4)[nH]n3)nccn2n1 | CDK2/Cyclin E complex (Homo sapiens, UniProt P24941) | ≤ 100 nM |
| Cc1cc(CC(=O)Nc2cc([C@H]3CC[C@H](O)C3)[nH]n2)on1 (single isomer, unassigned) | CDK2/Cyclin E complex (Homo sapiens, UniProt P24941) | 1000 to 100000 nM |
| COCc1cc(C(=O)Nc2cc([C@H]3C[C@@H]4[C@H](C3)[C@H]4C(=O)N(C)C)[nH]n2)n(C)n1 | CDK2/Cyclin E complex (Homo sapiens, UniProt P24941) | 1000 to 100000 nM |

Then there is this compound:
Record request: IC50 value, item COCc1cc2c(Nc3cc([C@H]4C[C@@H](Oc5[nH]ncc5C(C)(C)C)CO4)[nH]n3)nccn2n1
≤ 100 nM
